Test system: SN12C renal
Assay: NCI tumour cell line growth inhibition, 48 h

{"columns": ["Compound", "TGI"],
 "data": [
  ["CC1C2=C(CCCC2=O)N(c2ccc(Cl)cc2)C2=C1C(=O)CCC2", "> 100 µM"],
  ["CN(/N=C/c1cccc2cccnc12)c1c([N+](=O)[O-])cc([N+](=O)[O-])cc1[N+](=O)[O-]", "> 100 µM"],
  ["COc1ccccc1NS(=O)(=O)c1ccc2oc(SC(C)C)nc2c1", "34.5 µM"],
  ["CC/C=C/C[C@H](O)[C@H]1C[C@H]2O[C@H](CC(=O)OC)C[C@H]2O1", "> 100 µM"],
  ["CCOC(=O)C(CNc1ccc(O)cc1)NC(=O)c1ccccc1 (stereo not given)", "> 100 µM"]
]}

---

Test system: HT29 colon
Assay: NCI tumour cell line growth inhibition, 48 h
Where a SMILES comes first, the peptide text is derived from it. The star is where a group is joined. Cbz = O=C(OCc1ccccc1)*; NHNH2 = NN*

{"columns": ["Compound", "Measured Target", "TGI"],
 "data": [
  ["Cc1cc(Cl)ccc1Nc1nc(C(F)(F)F)ccc1C(=O)N/N=C/c1ccccc1Cl", "HT29 colon", "> 41.9 µM"],
  ["CN(C)c1ccc(C(c2ccc(Cl)cc2)c2ccc(N(C)C)cc2)cc1", "HT29 colon", "> 100 µM"],
  ["N#Cc1c(N)nc(NCc2ccccc2)c(C#N)c1-c1ccc(Cl)cc1Cl", "HT29 colon", "> 100 µM"],
  ["Cc1ccc2[nH]c3[nH]c(=S)[nH]c(=O)c3c2c1", "HT29 colon", "> 100 µM"],
  ["C=CCc1cc(C(Cc2ccccc2)NC(C)C)cc(OCc2ccccc2)c1OCc1ccccc1 (stereo unspecified)", "HT29 colon", "28.6 µM"],
  ["CNS(=O)(=O)OCC1OC(n2cnc3c(N)ncnc32)C(O)C1O (stereo unspecified)", "HT29 colon", "> 100 µM"],
  ["COc1cccc(/C(C)=N/NC(=O)CSc2nc3ccccc3c(=O)n2CCc2ccc(S(N)(=O)=O)cc2)c1", "HT29 colon", "5.31 µM"],
  ["CCN(CC)CCn1[nH]c2c3ccc(=O)cc3sc3c(NCCN)ccc1c32", "HT29 colon", "6.2 µM"],
  ["O=C(Nc1sccc1S(=O)(=O)c1ccccc1)c1ccccc1", "HT29 colon", "> 100 µM"],
  ["CCn1c(=O)c2nc(SC)sc2n(-c2ccccc2)c1=O", "HT29 colon", "> 100 µM"],
  ["COc1cccc2c1C(=O)OC2c1cccc2ccccc12 (stereo unspecified)", "HT29 colon", "> 100 µM"],
  ["CC[P+]1(c2ccccc2)[C@@H](C)CC[C@@H]1C", "HT29 colon", "> 100 µM"],
  ["Cc1ccc(NC(=O)/C(=N/N(C)C)C(C2OC(=O)c3ccccc32)[N+](=O)[O-])cc1 (stereo unspecified)", "HT29 colon", "> 100 µM"],
  ["CN1C(=O)CC2CCC(=O)N2c2cccnc21 (stereo unspecified)", "HT29 colon", "> 100 µM"],
  ["Cc1nc2sccn2c1C(=O)NC(=O)Nc1ccc(Cl)cc1", "HT29 colon", "> 100 µM"],
  ["COc1ccc(N2C(=O)C3c4[nH]c5ccc(F)cc5c4C4CCC(C(C)(C)C)CC4C3C2=O)cc1 (stereo unspecified)", "HT29 colon", "> 10 µM"],
  ["COc1ccc2c3c([nH]c2c1)CCN(Cc1ccccc1)C3", "HT29 colon", "> 100 µM"],
  ["S=C=NCCc1ccccc1", "HT29 colon", "0.554 µM"],
  ["N#CCN(CC#N)C1CC=CCC1N(CC#N)CC#N (stereo unspecified)", "HT29 colon", "> 100 µM"],
  ["CCOC(=O)CCC(NC(=O)OCc1ccccc1)C(=O)NC(CCC(=O)OCC)C(=O)NN (stereo unspecified) (Cbz-Glu(OEt)-Glu(OEt)-NHNH2; configuration not given here)", "HT29 colon", "> 100 µM"],
  ["CC1=C[C@H]2C[C@H](C)[C@H]3CC[C@H](C)[C@]4(C1)C(=O)C(O)=C(C)C(=O)[C@@]324", "HT29 colon", "> 100 µM"]
]}
